pest or weed control at 250 g/ha overview
Tested on: Echinochloa crus-galli (ECHCG)
ASSAY DETAILS: Test Example 1 pre-emergence herbicidal activity
Assay type: in vivo
CONDITION LABEL: Echinochloa crus-galli, 480 h, rate 250 g/ha, evaluated 20 days later, read-out: Pre-emergence activity ECHCG (100=total damage to plant; 0=no damage to plant)
Answer with a number only, understood to be in %.

>  <MOLECULE>
CCc1cc(C)cc(CC)c1C1=C(O)[C@@H]2[C@@H]3O[C@@H](C[C@H]3c3ccc(C)cc3)[C@@H]2C1=O (racemic) [Example T180]

>  <pest or weed control at 250 g/ha / %>
60

$$$$
>  <MOLECULE>
C#CCOC(=O)OC1=C(c2c(C)cc(C)cc2C)C(=O)[C@@H]2[C@H]1[C@@]1(C)CC[C@]2(C)O1 (racemic) [Example P36]

>  <pest or weed control at 250 g/ha / %>
100

$$$$
>  <MOLECULE>
CC#CCOC(=O)OC1=C(c2c(CC)cc(C)cc2CC)C(=O)[C@@H]2[C@H]1[C@H]1CC[C@@H]2O1 (racemic) [Example P15]

>  <pest or weed control at 250 g/ha / %>
100

$$$$
>  <MOLECULE>
CCc1cc(C)cc(CC)c1C1=C(O)[C@@H]2[C@@H]3O[C@@H](C[C@H]3c3ccc(C)cc3Cl)[C@@H]2C1=O [Example T143]

>  <pest or weed control at 250 g/ha / %>
10

$$$$
>  <MOLECULE>
CCC(C)C(=O)OC1=C(c2c(C)cc(C)cc2C)C(=O)[C@@H]2[C@H]1[C@H]1CC[C@@H]2O1 (stereo partly drawn) [Example P9]

>  <pest or weed control at 250 g/ha / %>
80

$$$$

# next molecule below
### Prompt // pest or weed control at 250 g/ha lookup, key: CCc1cc(C)cc(CC)c1C1=C(O)[C@@H]2[C@@H]3O[C@@H](C[C@H]3c3ccc(Cl)c(Cl)c3)[C@@H]2C1=O [Example T150]
### Response 40

---

Test system: Alopecurus myosuroides (ALOMY)
ASSAY DETAILS: Test Example 1 post-emergence herbicidal activity
Type: in vivo
CONDITION LABEL: 360 h, rate 125 g/ha, evaluated 15 days later, read-out: Post-emergence activity ALOMY (100=total damage to plant; 0=no damage to plant)
Description: Monocotyledonous and dicotyledonous test plants were sown in standard soil in pots. […] The test plants were then grown in a greenhouse under optimum conditions until, 15 days later for post-emergence and 20 days for pre-emergence, the test was evaluated (100=total damage to plant; 0=no damage to plant). […]
pest or weed control at 125 g/ha overview
Answer with a number only, understood to be in %.

Study these solved cases before continuing.
>  <COMPOUND>
CCc1cc(C)cc(CC)c1C1=C(O)[C@H]2[C@@H](C1=O)[C@@H]1C=C[C@@]2(CO)O1 (racemic) [Example T13]

>  <SYSTEM>
Alopecurus myosuroides (ALOMY)

>  <RESULT UNITS>
%

>  <pest or weed control at 125 g/ha>
80

$$$$
>  <COMPOUND>
Cc1cc(C)c(C2=C(O)[C@H]3[C@@H](C2=O)[C@]2(C)C=C[C@@]3(C)O2)c(C)c1 [Example T34]

>  <SYSTEM>
Alopecurus myosuroides (ALOMY)

>  <RESULT UNITS>
%

>  <pest or weed control at 125 g/ha>
40

$$$$
>  <COMPOUND>
CCc1cc(C)cc(CC)c1C1=C(O)[C@@H]2[C@@H]3O[C@@H](C[C@H]3c3ccc(F)cc3F)[C@@H]2C1=O [Example T163]

>  <SYSTEM>
Alopecurus myosuroides (ALOMY)

>  <RESULT UNITS>
%

>  <pest or weed control at 125 g/ha>
80

$$$$

# next compound below
### Prompt API: value(readout= pest or weed control at 125 g/ha, system= Alopecurus myosuroides (ALOMY), query= Cc1cc(C)c(C2=C(O)[C@@H]3[C@@H]4O[C@@H](C[C@H]4c4ccc(F)cc4)[C@@H]3C2=O)c(C)c1 (racemic) [Example T70] )
### Response 90

---

Test system: Avena fatua (AVEFA)
ASSAY DETAILS: Test Example 1 post-emergence herbicidal activity
Type: in vivo
CONDITION LABEL: 360 h, rate 125 g/ha, evaluated 15 days later, read-out: Post-emergence activity AVEFA (100=total damage to plant; 0=no damage to plant)
ENDPOINT: pest or weed control at 125 g/ha (%)
Answer with a number only, understood to be in %.

### Prompt // pest or weed control at 125 g/ha lookup, key: Cc1cc(C)c(C2=C(OC(=O)C3CC3)[C@H]3[C@@H](C2=O)[C@@H]2CC[C@H]3O2)c(C)c1 (racemic)
### Response 90

### Prompt // pest or weed control at 125 g/ha lookup, key: "CCc1cc(C)cc(CC)c1C1=C(O)[C@@H]2[C@@H]3O[C@@H](C[C@H]3c3ccc(Cl)cc3)[C@@H]2C1=O"
### Response 70

### Prompt // pest or weed control at 125 g/ha lookup, key: "CCc1cc(C)cc(CC)c1C1=C(O)[C@@H]2[C@@H]3O[C@@H](C[C@H]3c3ccccc3[N+](=O)[O-])[C@@H]2C1=O"
### Response 70

### Prompt // pest or weed control at 125 g/ha lookup, key: CCc1cc(C)cc(CC)c1C1=C(OC(=O)C2CC2)[C@H]2[C@@H](C1=O)[C@@H]1CC[C@H]2O1 (racemic)
### Response 100

### Prompt // pest or weed control at 125 g/ha lookup, key: Cc1cc(C)c(C2=C(O)[C@H]3[C@@H](C2=O)[C@@H]2C=C[C@@]3(C(C)O)O2)c(C)c1 (mixture of isomers)
### Response 20

### Prompt // pest or weed control at 125 g/ha lookup, key: "Cc1cc(C)c(C2=C(O)[C@@H]3[C@@H]4O[C@@H](C[C@H]4c4cccc(C(F)(F)F)c4)[C@@H]3C2=O)c(C)c1"
### Response 20

---

pest or weed control at 250 g/ha overview
Tested on: Echinochloa crus-galli (ECHCG)
ASSAY DETAILS: Test Example 1 pre-emergence herbicidal activity
Assay type: in vivo
CONDITION LABEL: Echinochloa crus-galli, 480 h, rate 250 g/ha, evaluated 20 days later, read-out: Pre-emergence activity ECHCG (100=total damage to plant; 0=no damage to plant)
Answer with a number only, understood to be in %.

>  <MOLECULE>
CCc1cc(C)cc(CC)c1C1=C(O)[C@H]2[C@@H](C1=O)[C@]1(C)CC[C@@]2(C)O1

>  <pest or weed control at 250 g/ha [%]>
90

$$$$
>  <MOLECULE>
CSc1ccc([C@@H]2C[C@@H]3O[C@H]2[C@H]2C(O)=C(c4c(C)cc(C)cc4C)C(=O)[C@H]23)cc1

>  <pest or weed control at 250 g/ha [%]>
70

$$$$
>  <MOLECULE>
CCOC(=O)C1=NOC2C1[C@@H]1O[C@H]2[C@H]2C(O)=C(c3c(CC)cc(C)cc3CC)C(=O)[C@H]21 (mixture of isomers)

>  <pest or weed control at 250 g/ha [%]>
0

$$$$
>  <MOLECULE>
CCc1cc(C)cc(CC)c1C1=C(OC(=O)C2CCCCC2)[C@H]2[C@@H](C1=O)[C@@H]1CC[C@H]2O1 (racemic)

>  <pest or weed control at 250 g/ha [%]>
100

$$$$
>  <MOLECULE>
Cc1cc(C)c(C2=C(O)[C@@H]3[C@@H]4O[C@@H](C[C@H]4c4ccc(F)nc4)[C@@H]3C2=O)c(C)c1

>  <pest or weed control at 250 g/ha [%]>
100

$$$$

# next molecule below
### Prompt // pest or weed control at 250 g/ha lookup, key: "Cc1cc(C)c(C2=C(O)[C@H]3[C@@H](C2=O)[C@@H]2CC[C@H]3O2)c(C)c1"
### Response 100

---

pest or weed control at 125 g/ha overview
Test system: Alopecurus myosuroides (ALOMY)
ASSAY DETAILS: Test Example 1 post-emergence herbicidal activity
Format: in vivo
CONDITION LABEL: 360 h, rate 125 g/ha, evaluated 15 days later, read-out: Post-emergence activity ALOMY (100=total damage to plant; 0=no damage to plant)
Experimental: Monocotyledonous and dicotyledonous test plants were sown in standard soil in pots. […] The test plants were then grown in a greenhouse under optimum conditions until, 15 days later for post-emergence and 20 days for pre-emergence, the test was evaluated (100=total damage to plant; 0=no damage to plant). […]
Answer with a number only, understood to be in %.

Study these solved cases before continuing.
>  <MOLECULE>
CCc1cc(C)cc(CC)c1C1=C(O)[C@H]2[C@@H](C1=O)[C@@H]1CC[C@@]2(CO)O1

>  <pest or weed control at 125 g/ha [%]>
80

$$$$
>  <MOLECULE>
CCC(C)C(=O)OC1=C(c2c(C)cc(C)cc2C)C(=O)[C@@H]2[C@H]1[C@H]1CC[C@@H]2O1 (stereo partly shown)

>  <pest or weed control at 125 g/ha [%]>
100

$$$$
>  <MOLECULE>
CCc1cc(C)cc(CC)c1C1=C(O)[C@@H]2[C@@H]3O[C@@H](C[C@H]3c3cccc(F)c3C#N)[C@@H]2C1=O

>  <pest or weed control at 125 g/ha [%]>
60

$$$$
>  <MOLECULE>
CCOC(=O)C1=NOC2C1[C@@H]1O[C@H]2[C@H]2C(O)=C(c3c(CC)cc(C)cc3CC)C(=O)[C@H]21 (mixture of isomers)

>  <pest or weed control at 125 g/ha [%]>
40

$$$$
>  <MOLECULE>
CCc1cc(C)cc(CC)c1C1=C(O)[C@H]2[C@@H](C1=O)[C@@H]1CC[C@H]2O1

>  <pest or weed control at 125 g/ha [%]>
70

$$$$
>  <MOLECULE>
CC1=C[C@@H]2O[C@H]1[C@H]1C(O)=C(c3c(C)cc(C)cc3C)C(=O)[C@H]12 (racemic)

>  <pest or weed control at 125 g/ha [%]>
80

$$$$
>  <MOLECULE>
CCc1cc(C)cc(CC)c1C1=C(O)[C@@H]2[C@@H]3O[C@@H](C[C@H]3c3ccc([N+](=O)[O-])cc3)[C@@H]2C1=O

>  <pest or weed control at 125 g/ha [%]>
90

$$$$
>  <MOLECULE>
CSc1ccc([C@@H]2C[C@@H]3O[C@H]2[C@H]2C(O)=C(c4c(C)cc(C)cc4C)C(=O)[C@H]23)cc1

>  <pest or weed control at 125 g/ha [%]>
80

$$$$

### Prompt // pest or weed control at 125 g/ha lookup, key: "CCc1cc(C)cc(CC)c1C1=C(O)[C@@H]2[C@@H]3O[C@@H](C[C@H]3c3ccc(C)c(F)c3)[C@@H]2C1=O"
### Response 80

### Prompt // pest or weed control at 125 g/ha lookup, key: "Cc1cc(C)c(C2=C(O)[C@@H]3[C@@H]4O[C@@H](C[C@H]4c4cnc5ccccc5n4)[C@@H]3C2=O)c(C)c1"
### Response 80

### Prompt // pest or weed control at 125 g/ha lookup, key: "Cc1cc(C)c(C2=C(O)[C@H]3[C@@H](C2=O)[C@@H]2CC[C@H]3O2)c(C)c1"
### Response 60

### Prompt // pest or weed control at 125 g/ha lookup, key: C=C[C@@H]1C[C@@H]2O[C@H]1[C@H]1C(O)=C(c3c(C)cc(C)cc3C)C(=O)[C@H]12 (racemic)
### Response 80

### Prompt // pest or weed control at 125 g/ha lookup, key: Cc1cc(C)c(C2=C(OC(=O)C(C)(C)C)[C@H]3[C@@H](C2=O)[C@@H]2CC[C@H]3O2)c(C)c1 (racemic)
### Response 80
